Target: IM-CA22
Sequence (VH, as listed by the source, chain 1 of 2): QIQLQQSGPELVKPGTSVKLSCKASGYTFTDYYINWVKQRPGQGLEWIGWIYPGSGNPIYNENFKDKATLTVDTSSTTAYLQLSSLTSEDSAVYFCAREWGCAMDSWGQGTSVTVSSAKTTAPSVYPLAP
Sequence (VL, as listed by the source, chain 2 of 2): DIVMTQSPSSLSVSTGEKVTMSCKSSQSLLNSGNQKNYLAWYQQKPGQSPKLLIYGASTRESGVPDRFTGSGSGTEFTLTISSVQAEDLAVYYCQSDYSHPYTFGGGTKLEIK
Test: competition ELISA: 0.5 µg/mL peptide added to prevent the binding of AS-SPIK with IM-CA22; inhibition rate from OD value with vs without peptide
property: Inhibition % (%)
Express your answer in %, writing the number without its unit.

These solved cases illustrate the format of a correct answer.
{"columns": ["binder", "Inhibition % [%]"],
 "data": [
  ["GNTGADSLG [SPIK4]", 6],
  ["LSGNTGADS [SPIK6]", 6]
]}

What value of Inhibition % has been reported for the following binder? SGNTGADSL [SPIK5] 5

Entry under review: SLSGNTGAD [SPIK7] . Reported Inhibition %? 6
